System: HACAT
test method notes: qHTS assay to identify novel small-molecules to repurpose for Merkel cell carcinoma treatment (AID 1296009); further: nearly all actives have a fitted effect of over 60% in size
test context: MCC and control cell lines, CellTiter-Glo viability, 72 h; at 44.8 µM (top of the series) unless noted
Description: MCC is a rare and aggressive neuroendocrine skin cancer with limited treatment options. Approximately 80% of MCCs have the Merkel cell polyomavirus (MCPyV) DNA integrated into the host genome (virus-positive: VP-MCC) and viral oncogenes drive oncogenesis. The remaining MCCs are virus-negative (VN-MCC) and are caused by UV mutagenesis. […] Using cell viability as a readout (CellTiter-Glo assay) we found both overlapping and distinct drugs that can be repurposed for the treatment of VP-MCC and VN-MCC. […]
Results filed as inconclusive are left out. The source made the active and inactive calls. The call rests on the fitted dose curve; in most records, active means well fitted inhibition curve with a large enough effect; inconclusive means small, poorly fitted or top-dose-only effect; inactive means flat fitted curve, though single readings scatter. Where a SMILES comes first, the peptide text is derived from it.
outcome measure: outcome

INSERT INTO results (compound, system_under_test, observed_value) VALUES
  ('CC(C)C1NC(=O)CNC(=O)C2CCCN2C(=O)C(Cc2c[nH]c3ccccc23)NC(=O)CNC(=O)C(Cc2ccc(O)cc2)NC(=O)CNC1=O (centres undefined) (cyclo(GVGYGWP); configuration not given here)', 'HACAT', 'inactive [at 17.4 µM]'),
  ('O=C(O)CC/C=C\C[C@H]1CO[C@@H](c2ccccc2Cl)O[C@H]1c1ccccc1O', 'HACAT', 'inactive'),
  ('COc1ccnc2[nH]cc(C(=O)C(=O)N3CCN(C(=O)c4ccccc4)CC3C)c12 (centres undefined)', 'HACAT', 'inactive'),
  ('CC(NC(=O)[C@H](Cc1ccccc1)NC(=O)OCc1ccccc1)C(=O)CF (some centres undefined)', 'HACAT', 'inactive'),
  ('CC(C)C1NC(=O)C2CCCN2C1=O (centres undefined)', 'HACAT', 'inactive'),
  ('CC1(C(=O)O)CCCC2(C)C3CC4C5CC3(CCC12)CC45C (centres undefined)', 'HACAT', 'inactive'),
  ('CC(=O)O[C@H]1C[C@@H](O)C(C)(C)C2C[C@@H](OC(C)=O)[C@@]3(C)C4=CCC(C(CO)CC(O)C5OC5(C)C)[C@]4(C)CCC3[C@]21C (some centres undefined)', 'HACAT', 'inactive [at 17.4 µM]'),
  ('Cc1occc(=O)c1O[C@@H]1O[C@H](COC(=O)CC(C)(O)CC(=O)O)[C@@H](O)[C@H](O)[C@H]1O (some centres undefined)', 'HACAT', 'inactive [at 17.4 µM]'),
  ('CC(C)(O)C1CC=C(C(=O)OC[C@H]2O[C@@H](OC(=O)C3=CCC(C(C)(C)O)CC3)[C@H](O)[C@@H](O)[C@@H]2O)CC1 (some centres undefined)', 'HACAT', 'inactive [at 17.4 µM]');
